# credit: patent US6936431

target: rat brain farnesyl:protein transferase (rat, UniProt Q04631 2-377; Q02293 1-437)
assay_explanation: farnesyltransferase activity inhibition; FIG. 10B
experimental_endpoint: Ki

INSERT INTO measurements (binder, measured_value) VALUES
  ('CVIK [CVIM with lysine at the X position (CVIK)]', '> 30 µM');

Next up:
[ask] Name the reported Ki value associated with the binder CVKM [CVIM with lysine at the A2 position (CVKM)]
[reply] > 30 µM
